# ASSAYED SYSTEM: mTORC1 (mTOR/GbL/Raptor) (Homo sapiens, UniProt P42345)
# TEST: mTOR/GbL/Raptor (mTORC1) ELISA Assay
# Assay type: biochemical
# SETTINGS: 0.2 nM mTORC1, 10 μM ATP, 50 nM NHis-tagged 4E-BP1; phosphorylation of 4E-BP1; read-out: IC50
EXPERIMENTAL ENDPOINT: IC50

O=C(N1CCOc2ccc(-c3ccc(-c4ncc[nH]4)cc3)cc2C1)N1[C@@H]2CC[C@H]1C[C@](O)(C(F)(F)F)C2: ≤ 0.05 µM

Challenge: Give IC50 for Cc1nc2ccc(-c3ccc4c(c3)CN(C(=O)N3CCCC3C)CCO4)cc2[nH]1 (stereo not shown) tested on mTORC1 (mTOR/GbL/Raptor) (Homo sapiens, UniProt P42345).
Response given: 0.7 to 2.6 µM

Challenge: Give IC50 for `COC(=O)Nc1nc2ncc(-c3ccc4c(c3)CN(C(=O)N3CCC(C)CC3)CCO4)cc2[nH]1` tested on mTORC1 (mTOR/GbL/Raptor) (Homo sapiens, UniProt P42345).
Response given: ≤ 0.05 µM

Challenge: Give IC50 for Cc1nc2cc(-c3ccc4c(c3)CN(C(=O)N3CC[C@](C)(O)C[C@@H]3c3ccccc3)CCO4)ccc2[nH]1 (racemic) tested on mTORC1 (mTOR/GbL/Raptor) (Homo sapiens, UniProt P42345).
Response given: 0.7 to 2.6 µM
